Biological target: PLK1 kinase (Homo sapiens)
Construct: purchased CarnaBio 05–157
Sequence (P53350 whole entry): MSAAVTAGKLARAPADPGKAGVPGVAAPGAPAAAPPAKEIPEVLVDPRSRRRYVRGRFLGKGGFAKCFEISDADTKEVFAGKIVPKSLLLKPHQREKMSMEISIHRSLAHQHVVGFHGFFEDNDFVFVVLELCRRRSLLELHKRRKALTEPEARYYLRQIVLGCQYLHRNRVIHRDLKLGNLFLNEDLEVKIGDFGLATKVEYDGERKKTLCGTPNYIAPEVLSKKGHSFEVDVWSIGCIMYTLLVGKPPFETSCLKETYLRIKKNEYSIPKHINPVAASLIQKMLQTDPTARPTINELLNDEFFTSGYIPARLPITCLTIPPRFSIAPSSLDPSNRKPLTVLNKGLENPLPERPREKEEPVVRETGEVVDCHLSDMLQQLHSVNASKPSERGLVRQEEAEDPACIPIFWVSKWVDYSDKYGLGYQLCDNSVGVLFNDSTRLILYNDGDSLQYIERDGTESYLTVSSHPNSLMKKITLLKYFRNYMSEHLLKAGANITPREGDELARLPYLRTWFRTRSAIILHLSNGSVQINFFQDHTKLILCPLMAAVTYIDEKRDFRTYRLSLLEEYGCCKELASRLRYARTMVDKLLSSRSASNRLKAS
Experiment: PLK1 kinase inhibition activity
Assay type: biochemical
Conditions: read-out: PLK1 inhibition IC50
value type: pIC50
One number for each entry, as −log10 of the molar value.

Task item: Print PLK1 kinase (Homo sapiens) pIC50 for CN1CCN(c2ccc(OC(F)(F)F)c(Nc3nccc(-c4cc5c(n4C)CCNC5=O)n3)c2)CC1 [compound 25, reference compound] .
Reply: 8.39

* * *

Test: Pharmacokinetic study in rats after oral administration
Format: in vivo, Sprague-Dawley rats
Conditions: Sprague-Dawley, rat, plasma; oral 30 mg/kg, female rats
value type: Tmax (h)
Give bare numbers, in h.

Task item: For the compound CN1CCN(c2ccc(OC(F)(F)F)c(Nc3nccc(-c4cc5c(=O)[nH]ccc5n4C)n3)c2)CC1 , give its reported Tmax.
Reply: 2.3

* * *

Assay: Pharmacokinetic study in rats after oral administration
Assay type: in vivo, Sprague-Dawley rats
Details: Sprague-Dawley, rat, plasma; oral 30 mg/kg, male rats
value type: Tmax (h)
Give bare numbers, in h.

Task item: For the compound CN1CCN(c2ccc(OC(F)(F)F)c(Nc3nccc(-c4cc5c(=O)[nH]ccc5n4C)n3)c2)CC1 [compound 7a] , give its reported Tmax.
Reply: 2

* * *

Experiment: Pharmacokinetic study in rats after oral administration
Type: in vivo, Sprague-Dawley rats
Conditions: both sexes, Sprague-Dawley, rat, plasma; oral 30 mg/kg, mean of male and female rats
value type: Tmax (h)
Give bare numbers, in h.

Task item: For the molecule CN1CCN(c2ccc(OC(F)(F)F)c(Nc3nccc(-c4cc5c(=O)[nH]ccc5n4C)n3)c2)CC1 [compound 7a] , give its reported Tmax.
Reply: 2.2

* * *

Assay: Pharmacokinetic study in rats after oral administration
Type: in vivo, Sprague-Dawley rats
Conditions: Sprague-Dawley, rat, plasma; oral 30 mg/kg, male rats
value type: Cmax (nM)
One number for each entry, in nM.

Task item: For the compound CN1CCN(c2ccc(OC(F)(F)F)c(Nc3nccc(-c4cc5c(=O)[nH]ccc5n4C)n3)c2)CC1 , give its reported Cmax.
Reply: 435

* * *

Test: Pharmacokinetic study in rats after oral administration
Type: in vivo, Sprague-Dawley rats
Details: Sprague-Dawley, rat, plasma; oral 30 mg/kg, male rats
value type: half-life (h)
Give bare numbers, in h.

Task item: For the molecule CN1CCN(c2ccc(OC(F)(F)F)c(Nc3nccc(-c4cc5c(=O)[nH]ccc5n4C)n3)c2)CC1 , give its reported half-life.
Reply: 3.7

* * *

Assay: Pharmacokinetic study in rats after oral administration
Format: in vivo, Sprague-Dawley rats
Conditions: both sexes, Sprague-Dawley, rat, plasma, po, 30 mg/kg, oral 30 mg/kg, mean of male and female rats; read-out: AUC0–24h
value type: AUC(0-t)

Task item: For the compound CN1CCN(c2ccc(OC(F)(F)F)c(Nc3nccc(-c4cc5c(=O)[nH]ccc5n4C)n3)c2)CC1 , give its reported AUC(0-t).
Reply: ~3.19 µM·h

* * *

Experiment: Pharmacokinetics in rats after intravenous administration
Format: in vivo
Details: Sprague-Dawley, rat, plasma, i.v. 1 mg/kg, read-out: Vss
value type: Vd (L/kg)
Numbers only, in L/kg.

Task item: For the compound CN1CCN(c2ccc(OC(F)(F)F)c(Nc3nccc(-c4cc5c(=O)[nH]ccc5n4C)n3)c2)CC1 , give its reported Vd.
Reply: 8.5

* * *

Assay: Pharmacokinetic study in rats after oral administration
Format: in vivo, Sprague-Dawley rats
Details: Sprague-Dawley, rat, plasma; oral 30 mg/kg, female rats
value type: half-life
Answers without a unit are incomplete; give the number and then its unit.

Task item: For the compound CN1CCN(c2ccc(OC(F)(F)F)c(Nc3nccc(-c4cc5c(=O)[nH]ccc5n4C)n3)c2)CC1 , give its reported half-life.
Reply: 6.1 h

* * *

Test: Pharmacokinetic study in rats after oral administration
Format: in vivo, Sprague-Dawley rats
Conditions: both sexes, Sprague-Dawley, rat, plasma; oral 30 mg/kg, mean of male and female rats
value type: Cmax

Task item: For the compound CN1CCN(c2ccc(OC(F)(F)F)c(Nc3nccc(-c4cc5c(=O)[nH]ccc5n4C)n3)c2)CC1 , give its reported Cmax.
Reply: 432 nM

* * *

Experiment: Pharmacokinetic study in rats after oral administration
Type: in vivo, Sprague-Dawley rats
Details: both sexes, Sprague-Dawley, rat, plasma; oral 30 mg/kg, mean of male and female rats
Protocol: Sprague-Dawley rats (8 weeks old, 180–220 g) were provided by Pengyue Laboratory Animal Technology Co., Ltd (Jinan, Shandong, China). All rats were fed adaptively for 1 week (20 °C–24 °C, 50%–70% relative humidity, 12/12 h light/dark cycle). A standard diet and boiled water were provided. The rats fasted for over 12h with free access to water before the study. […] The main pharmacokinetic parameters were calculated using Phoenix WinNonlin 7.0 via a non-compartmental model (Pharsight, Mountain View, CA). […]
value type: half-life (h)
Answers are plain numbers, in h.

Task item: For the compound CN1CCN(c2ccc(OC(F)(F)F)c(Nc3nccc(-c4cc5c(=O)[nH]ccc5n4C)n3)c2)CC1 , give its reported half-life.
Reply: 5.1

* * *

Assay: Pharmacokinetic study in rats after oral administration
Format: in vivo, Sprague-Dawley rats
Details: Sprague-Dawley, rat, plasma; oral 5 mg/kg, female rats
value type: Cmax (nM)
Give bare numbers, in nM.

Task item: For the molecule CN1CCN(c2ccc(OC(F)(F)F)c(Nc3nccc(-c4cc5c(=O)[nH]ccc5n4C)n3)c2)CC1 , give its reported Cmax.
Reply: 102

* * *

Test: Pharmacokinetic study in rats after oral administration
Assay type: in vivo, Sprague-Dawley rats
Settings: female, Sprague-Dawley, rat, plasma, po, 5 mg/kg, oral 5 mg/kg, female rats; read-out: AUC0–24h
Experimental: Sprague-Dawley rats (8 weeks old, 180–220 g) were provided by Pengyue Laboratory Animal Technology Co., Ltd (Jinan, Shandong, China). All rats were fed adaptively for 1 week (20 °C–24 °C, 50%–70% relative humidity, 12/12 h light/dark cycle). A standard diet and boiled water were provided. The rats fasted for over 12h with free access to water before the study. […] The main pharmacokinetic parameters were calculated using Phoenix WinNonlin 7.0 via a non-compartmental model (Pharsight, Mountain View, CA). […]
value type: AUC(0-t) (µM·h)
Give bare numbers, in µM·h.

Task item: For the compound CN1CCN(c2ccc(OC(F)(F)F)c(Nc3nccc(-c4cc5c(=O)[nH]ccc5n4C)n3)c2)CC1 [compound 7a] , give its reported AUC(0-t).
Reply: 0.469

* * *

Test: Pharmacokinetic study in rats after oral administration
Type: in vivo, Sprague-Dawley rats
Conditions: male, Sprague-Dawley, rat, plasma, po, 5 mg/kg, oral 5 mg/kg, male rats; read-out: AUC0–24h
value type: AUC(0-t) (µM·h)
Give bare numbers, in µM·h.

Task item: For the compound CN1CCN(c2ccc(OC(F)(F)F)c(Nc3nccc(-c4cc5c(=O)[nH]ccc5n4C)n3)c2)CC1 [compound 7a] , give its reported AUC(0-t).
Reply: 0.565

* * *

Assay: Pharmacokinetic study in rats after oral administration
Format: in vivo, Sprague-Dawley rats
Details: both sexes, Sprague-Dawley, rat, plasma; oral, rats, doses 5–30 mg/kg, overall statement
Procedure: Sprague-Dawley rats (8 weeks old, 180–220 g) were provided by Pengyue Laboratory Animal Technology Co., Ltd (Jinan, Shandong, China). All rats were fed adaptively for 1 week (20 °C–24 °C, 50%–70% relative humidity, 12/12 h light/dark cycle). A standard diet and boiled water were provided. The rats fasted for over 12h with free access to water before the study. […] The main pharmacokinetic parameters were calculated using Phoenix WinNonlin 7.0 via a non-compartmental model (Pharsight, Mountain View, CA). […]
value type: Tmax

Task item: For the compound CN1CCN(c2ccc(OC(F)(F)F)c(Nc3nccc(-c4cc5c(=O)[nH]ccc5n4C)n3)c2)CC1 , give its reported Tmax.
Reply: ~2 h

* * *

Test: Pharmacokinetic study in rats after oral administration
Format: in vivo, Sprague-Dawley rats
Conditions: both sexes, Sprague-Dawley, rat, plasma, po, 5 mg/kg, oral 5 mg/kg, mean of male and female rats; read-out: AUC0–24h
value type: AUC(0-t)

Task item: For the compound CN1CCN(c2ccc(OC(F)(F)F)c(Nc3nccc(-c4cc5c(=O)[nH]ccc5n4C)n3)c2)CC1 , give its reported AUC(0-t).
Reply: ~517 nM·h

* * *

Test: Pharmacokinetic study in rats after oral administration
Type: in vivo, Sprague-Dawley rats
Settings: both sexes, Sprague-Dawley, rat, plasma; oral, rats, doses 5–30 mg/kg, overall statement
Method: Sprague-Dawley rats (8 weeks old, 180–220 g) were provided by Pengyue Laboratory Animal Technology Co., Ltd (Jinan, Shandong, China). All rats were fed adaptively for 1 week (20 °C–24 °C, 50%–70% relative humidity, 12/12 h light/dark cycle). A standard diet and boiled water were provided. The rats fasted for over 12h with free access to water before the study. […] The main pharmacokinetic parameters were calculated using Phoenix WinNonlin 7.0 via a non-compartmental model (Pharsight, Mountain View, CA). […]
value type: half-life (h)
Give bare numbers, in h.

Task item: For the compound CN1CCN(c2ccc(OC(F)(F)F)c(Nc3nccc(-c4cc5c(=O)[nH]ccc5n4C)n3)c2)CC1 , give its reported half-life.
Reply: 5
